Please go through the items and note down their viability, T/C.
Test system: LG0567-F671-PDC complex spheroids viability
Assay: Anticancer human tumor LG0567-F671-PDC patient-derived lung adenocarcinoma cell line growth inhibition [RAS]
Conditions: second compound 0.316 µM; first compound 0.0316 µM; stronger effect = lower value
API: value field is a number in %; no unit string.

Form field, viability, T/C with LG0567-F671-PDC complex spheroids viability, item Nc1ccn(C2OC(CO)C(O)C2(F)F)c(=O)n1 (stereo not given) + C=CC(=O)N1CCN(c2nc(OCC3CCCN3C)nc3c(F)c(-c4nc(N)cc(C)c4C(F)(F)F)c(Cl)cc23)C(C)C1 : 11.6

Form field, viability, T/C with LG0567-F671-PDC complex spheroids viability, item CCN1CCN(Cc2ccc(Nc3ncc(F)c(-c4cc(F)c5nc(C)n(C(C)C)c5c4)n3)nc2)CC1 + C=CC(=O)N1CCN(c2nc(OCC3CCCN3C)nc3c(F)c(-c4nc(N)cc(C)c4C(F)(F)F)c(Cl)cc23)C(C)C1 : 11.9

Form field, viability, T/C with LG0567-F671-PDC complex spheroids viability, item CC(C)NCC(C(=O)N1CCN(c2ncnc3c2C(C)CC3O)CC1)c1ccc(Cl)cc1 (stereo not given) + C#Cc1c(F)ccc2cc(O)cc(-c3ncc4c(N5CC6CCC(C5)N6)nc(OCC56CCCN5CC(F)C6)nc4c3F)c12 : 50.3

Form field, viability, T/C with LG0567-F671-PDC complex spheroids viability, item Cc1nc(N2CCC3(CC2)COC(C)C3N)c(CO)nc1Sc1ccnc(N)c1Cl (stereo not given) + C=CC(=O)N1CCN(c2nc(OCC3CCCN3C)nc3c(F)c(-c4nc(N)cc(C)c4C(F)(F)F)c(Cl)cc23)C(C)C1 : 10.3

Form field, viability, T/C with LG0567-F671-PDC complex spheroids viability, item CCC(CC)c1cc(NC2CCC(N)C2)n2nccc2n1 (stereo not given) + C=CC(=O)N1CCN(c2nc(OCC3CCCN3C)nc3c(F)c(-c4nc(N)cc(C)c4C(F)(F)F)c(Cl)cc23)C(C)C1 : 11.4

====

Test system: LG0567-F671-PDC complex spheroids viability
Assay: Anticancer human tumor LG0567-F671-PDC cell line growth inhibition [RAS]; active = viability on the fitted dose curve at most 10% of control; inactive = the rest;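 note: spheroids exposed to compound for seven days before readout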
Details: second compound 1 µM; first compound 1 µM
Write down the outcome that applies. Available outcomes: active, inactive

Lookup: // return assay outcome for C=CC(=O)N1CCN(c2nc(OCC3CCCN3C)nc3c(F)c(-c4nc(N)cc(C)c4C(F)(F)F)c(Cl)cc23)C(C)C1 (configuration not stated) + C#Cc1c(F)ccc2cc(O)cc(-c3ncc4c(N5CC6CCC(C5)N6)nc(OCC56CCCN5CC(F)C6)nc4c3F)c12
Found: active

Lookup: // return assay outcome for O=C(c1ccc(F)c(F)c1Nc1ccc(I)cc1F)N1CC(O)([C@@H]2CCCCN2)C1 + C#Cc1c(F)ccc2cc(O)cc(-c3ncc4c(N5CC6CCC(C5)N6)nc(OCC56CCCN5CC(F)C6)nc4c3F)c12
Found: active

Lookup: // return assay outcome for C=CC(=O)Nc1cc(Nc2nccc(-c3cn(C)c4ccccc34)n2)c(OC)cc1N(C)CCN(C)C + C=CC(=O)N1CCN(c2nc(OCC3CCCN3C)nc3c(F)c(-c4nc(N)cc(C)c4C(F)(F)F)c(Cl)cc23)C(C)C1
Found: active

Lookup: // return assay outcome for CCC(CC)c1cc(NC2CCC(N)C2)n2nccc2n1 (configuration not stated) + C#Cc1c(F)ccc2cc(O)cc(-c3ncc4c(N5CC6CCC(C5)N6)nc(OCC56CCCN5CC(F)C6)nc4c3F)c12
Found: inactive

Lookup: // return assay outcome for CC1(O)CCCC1n1c(=O)c(C(F)F)cc2cnc(NC3CCN(S(C)(=O)=O)CC3)nc21 (configuration not stated) + C#Cc1c(F)ccc2cc(O)cc(-c3ncc4c(N5CC6CCC(C5)N6)nc(OCC56CCCN5CC(F)C6)nc4c3F)c12
Found: inactive

Lookup: // return assay outcome for CC(C)NCC(C(=O)N1CCN(c2ncnc3c2C(C)CC3O)CC1)c1ccc(Cl)cc1 (configuration not stated) + C#Cc1c(F)ccc2cc(O)cc(-c3ncc4c(N5CC6CCC(C5)N6)nc(OCC56CCCN5CC(F)C6)nc4c3F)c12
Found: inactive

Lookup: // return assay outcome for CC(Nc1ccc2c(c1)OCCn1cc(N3C(=O)OCC3C(F)F)nc1-2)C(N)=O (configuration not stated) + C#Cc1c(F)ccc2cc(O)cc(-c3ncc4c(N5CC6CCC(C5)N6)nc(OCC56CCCN5CC(F)C6)nc4c3F)c12
Found: inactive

====

Tested on: LG0567-F671-PDC complex spheroids viability
Assay: Anticancer human tumor LG0567-F671-PDC cell line growth inhibition [RAS]; active = viability on the fitted dose curve at most 10% of control; inactive = the rest;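 note: spheroids exposed to compound for seven days before readout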
Conditions: second compound 0.000949 µM; first compound 0.01 µM
Description: RAS pathway inhibitors in Combinations in Complex Spheroids A high-throughput screen of multi-cell type tumor spheroids was designed to identify active combinations of RAS pathway inhibitors and targeted small molecules. Complex spheroids include a stromal component modeled by human endothelial cells (HUVEC) and fibroblasts modeled by human mesenchymal stem cells (MSCs). […] Compounds. […] If the clinical Cmax for an agent had not been determined, the highest concentration tested was 10 microM. […]
Write down the outcome that applies. Available outcomes: yes = active, no = inactive

Lookup: // return assay outcome for C=CC(=O)Nc1cc(Nc2nccc(-c3cn(C)c4ccccc34)n2)c(OC)cc1N(C)CCN(C)C + CCn1c(-c2cccnc2C(C)OC)c2c3cc(ccc31)N1CCOC(CC(NC(=O)C(C(C)C)N(C)C(=O)C3(F)CCN(C(=O)C#CC(C)(C)N(C)C)CC3)C(=O)N3CCCC(N3)C(=O)OCC(C)(C)C2)C1
Found: no

Lookup: // return assay outcome for O=C(c1ccc(F)c(F)c1Nc1ccc(I)cc1F)N1CC(O)([C@@H]2CCCCN2)C1 + CCn1c(-c2cccnc2C(C)OC)c2c3cc(ccc31)N1CCOC(CC(NC(=O)C(C(C)C)N(C)C(=O)C3(F)CCN(C(=O)C#CC(C)(C)N(C)C)CC3)C(=O)N3CCCC(N3)C(=O)OCC(C)(C)C2)C1
Found: no

Lookup: // return assay outcome for CC(C)n1nc(-c2ccc3oc(N)nc3c2)c2c(N)ncnc21 + CCn1c(-c2cc(N3CCN(C)CC3)cnc2C(C)OC)c2c3cc(ccc31)-c1csc(n1)CC(NC(=O)C1CC1C)C(=O)N1CCCC(N1)C(=O)OCC(C)(C)C2
Found: no

Lookup: // return assay outcome for C=CC(=O)Nc1cc(Nc2nccc(-c3cn(C)c4ccccc34)n2)c(OC)cc1N(C)CCN(C)C + CCn1c(-c2cc(N3CCN(C)CC3)cnc2C(C)OC)c2c3cc(ccc31)-c1csc(n1)CC(NC(=O)C1CC1C)C(=O)N1CCCC(N1)C(=O)OCC(C)(C)C2
Found: no

Lookup: // return assay outcome for C=CC(=O)N1CCN(c2nc(OCC3CCCN3C)nc3c(F)c(-c4nc(N)cc(C)c4C(F)(F)F)c(Cl)cc23)C(C)C1 (configuration not stated) + CCn1c(-c2cc(N3CCN(C)CC3)cnc2C(C)OC)c2c3cc(ccc31)-c1csc(n1)CC(NC(=O)C1CC1C)C(=O)N1CCCC(N1)C(=O)OCC(C)(C)C2
Found: yes

Lookup: // return assay outcome for Nc1ccn(C2OC(CO)C(O)C2(F)F)c(=O)n1 (configuration not stated) + CCn1c(-c2cccnc2C(C)OC)c2c3cc(ccc31)N1CCOC(CC(NC(=O)C(C(C)C)N(C)C(=O)C3(F)CCN(C(=O)C#CC(C)(C)N(C)C)CC3)C(=O)N3CCCC(N3)C(=O)OCC(C)(C)C2)C1
Found: no

Lookup: // return assay outcome for C=CC(=O)N1CCN(c2nc(OCC3CCCN3C)nc3c(F)c(-c4nc(N)cc(C)c4C(F)(F)F)c(Cl)cc23)C(C)C1 (configuration not stated) + CCn1c(-c2cccnc2C(C)OC)c2c3cc(ccc31)N1CCOC(CC(NC(=O)C(C(C)C)N(C)C(=O)C3(F)CCN(C(=O)C#CC(C)(C)N(C)C)CC3)C(=O)N3CCCC(N3)C(=O)OCC(C)(C)C2)C1
Found: no

Lookup: // return assay outcome for Nc1ccn(C2OC(CO)C(O)C2(F)F)c(=O)n1 (configuration not stated) + CCn1c(-c2cc(N3CCN(C)CC3)cnc2C(C)OC)c2c3cc(ccc31)-c1csc(n1)CC(NC(=O)C1CC1C)C(=O)N1CCCC(N1)C(=O)OCC(C)(C)C2
Found: no

Lookup: // return assay outcome for CC(C)n1nc(-c2ccc3oc(N)nc3c2)c2c(N)ncnc21 + CCn1c(-c2cccnc2C(C)OC)c2c3cc(ccc31)N1CCOC(CC(NC(=O)C(C(C)C)N(C)C(=O)C3(F)CCN(C(=O)C#CC(C)(C)N(C)C)CC3)C(=O)N3CCCC(N3)C(=O)OCC(C)(C)C2)C1
Found: no

Lookup: // return assay outcome for O=C(c1ccc(F)c(F)c1Nc1ccc(I)cc1F)N1CC(O)([C@@H]2CCCCN2)C1 + CCn1c(-c2cc(N3CCN(C)CC3)cnc2C(C)OC)c2c3cc(ccc31)-c1csc(n1)CC(NC(=O)C1CC1C)C(=O)N1CCCC(N1)C(=O)OCC(C)(C)C2
Found: no

Lookup: // return assay outcome for CCN1CCN(Cc2ccc(Nc3ncc(F)c(-c4cc(F)c5nc(C)n(C(C)C)c5c4)n3)nc2)CC1 + CCn1c(-c2cccnc2C(C)OC)c2c3cc(ccc31)N1CCOC(CC(NC(=O)C(C(C)C)N(C)C(=O)C3(F)CCN(C(=O)C#CC(C)(C)N(C)C)CC3)C(=O)N3CCCC(N3)C(=O)OCC(C)(C)C2)C1
Found: no

Lookup: // return assay outcome for CCN1CCN(Cc2ccc(Nc3ncc(F)c(-c4cc(F)c5nc(C)n(C(C)C)c5c4)n3)nc2)CC1 + CCn1c(-c2cc(N3CCN(C)CC3)cnc2C(C)OC)c2c3cc(ccc31)-c1csc(n1)CC(NC(=O)C1CC1C)C(=O)N1CCCC(N1)C(=O)OCC(C)(C)C2
Found: no
